This listing pairs binders with measured SPOT peptide array binding signal intensity.
Biological target: ScBzz1-D1
Assay: SPOT peptide array binding signal intensity (averaged, normalized) (arbitrary units (background-subtracted, floor 0; scale differs between SH3 domains)); higher = stronger binding of the SH3 domain to the peptide
Output: the number by itself.

[[record]]
binder = "RNNRPVPPPPPMRTT"
observed_measurement = 453


Turning now to a further record.
Q) Bench note: what SPOT peptide array binding signal intensity did DGNEEKPLLPTRPNK show?
A) 34.2
